# protocol summary: chemical genetic growth profiling, strain panel (AID 1159580);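 also: tested at 20 µM; growth read once vehicle control cultures reached saturation at 30 °C; 1 = growth at the plate median or of vehicle wells; lower values mean less growth of the strain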
# protocol conditions: S. cerevisiae deletion strains, growth OD, locus YLR085C, strain ARP6, active compounds read low
The whole screen tested about 5,500 compounds, of which about 2,000 (36%) were called active. Roughly 18% stayed inconclusive and do not appear here. The list shows a part of the results.
// reported normalized growth per item
recorded metric: normalized growth

smiles code	val
COC(=O)C1=C(Nc2ccc(Cl)cc2)CSC1	0.368 (active)
c1ccc(Sc2c(-c3ccccc3)nc3ccccn23)cc1	0.275 (active)
N#Cc1ccc([N+](=O)[O-])s1	0.121 (active)
CC(C)(C)C(=O)N1CCN(c2ncccc2C(F)(F)F)CC1	0.941 (inactive)
COc1cc(NC(=O)NS(=O)(=O)c2ccc(C)cc2)cc(C(F)(F)F)c1	1.05 (inactive)
Cc1ccc(C(=O)c2ccccc2[N+](=O)[O-])cc1	0.9 (inactive)

====

// reported normalized growth per item
# protocol summary: chemical genetic growth profiling, strain panel (AID 1159580);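 also: tested at 20 µM; growth read once vehicle control cultures reached saturation at 30 °C; 1 = growth at the plate median or of vehicle wells; lower values mean less growth of the strain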
# protocol conditions: S. cerevisiae deletion strains, growth OD, locus YMR125W, strain sto1, active compounds read low
The campaign covered roughly 5,500 compounds. About 2,000 (36%) were called active. Not shown: some 18% with an inconclusive outcome. The list shows a part of the results.
recorded metric: normalized growth

molecule	val
O=c1oc2ccccc2c(O)c1Cc1c(O)c2ccccc2oc1=O	1.02 (inactive)
O=C(O)c1nc2cc(Cl)c(Cl)cc2[nH]c1=O	1.02 (inactive)
COc1cc([C@@H]2c3cc4c(cc3[C@H](O)[C@H]3COC(=O)[C@@H]23)OCO4)cc(OC)c1OC	1.02 (inactive)
CCC(CCC(C)[C@H]1CCC2C3CC=C4C[C@@H](O)CC[C@]4(C)C3CC[C@@]21C)C(C)C (some centres undefined)	1.01 (inactive)

====

# protocol summary: chemical genetic growth profiling, strain panel (AID 1159580);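 also: tested at 20 µM; growth read once vehicle control cultures reached saturation at 30 °C; 1 = growth at the plate median or of vehicle wells; lower values mean less growth of the strain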
# protocol conditions: S. cerevisiae deletion strains, growth OD, locus YNL298W, strain CLA4, active compounds read low
The whole screen tested about 5,500 compounds, of which about 2,000 (36%) were called active. Not shown: some 18% with an inconclusive outcome. Some of the results follow.

molecule	normalized growth
NCCc1cccc(O)c1	0.98
CC(=O)Oc1cc(-c2coc3cc(OC(C)=O)c(OC(C)=O)c(OC(C)=O)c3c2=O)cc(OC(C)=O)c1OC(C)=O	0.998
C=CCc1ccccc1OCC(O)CNC(C)C (configuration not stated)	1.02
CCN(CCCCOC(=O)c1ccc(OC)c(OC)c1)C(C)Cc1ccc(OC)cc1 (configuration not stated)	0.99
C[N+]1(CCCCC[N+]2(C)CCCC2)CCCC1	1.02
NCCc1ccc(O)c(O)c1	1
COc1cc2cc[n+]3cc4c(OC)c(OC)ccc4cc3c2cc1OC	0.984

====

# protocol summary: chemical genetic growth profiling, strain panel (AID 1159580);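 also: tested at 20 µM; growth read once vehicle control cultures reached saturation at 30 °C; 1 = growth at the plate median or of vehicle wells; lower values mean less growth of the strain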
# protocol conditions: S. cerevisiae deletion strains, growth OD, locus YBR021W, strain FUR4, active compounds read low
Screen size: about 5,500 compounds; about 2,000 (36%) were called active. Roughly 18% stayed inconclusive and do not appear here. Some of the results follow.
// reported normalized growth per item

smiles code	normalized growth
O=c1[nH]c2cc(Cl)c(Cl)cc2[nH]c1=O	1
O=C1CC[C@]23C=CC(=O)NCCCCNCCCNC(=O)/C=C/c4ccc(c2c4)O[C@@H]3C1	0.999
Nc1ccc(C(=O)Oc2ccccc2)c(O)c1	0.981
